Tested on: CCRIS mutagenicity, Ames/micronucleus/aberration tests
Assay: CCRIS mutagenicity studies
Details: Test System: AMES SALMONELLA TYPHIMURIUM; Strain/Indicator: TA1537; Metabolic Activation: RAT, LIVER, S-9, AROCLOR 1254; Method: STANDARD PLATE
The source made the active and inactive calls. How the calls were made is not given here.
Lab note: assign the record to one of t for active, f for inactive

Data request: Each molecule tested received a call. Report the one for "O=C1C=CC(=O)CC(=O)C1" .
Data returned: f

* * *

System: CCRIS mutagenicity, Ames/micronucleus/aberration tests
Assay: CCRIS mutagenicity studies
Settings: Test System: AMES SALMONELLA TYPHIMURIUM; Strain/Indicator: TA98; Metabolic Activation: RAT, LIVER, S-9, AROCLOR 1254; Method: STANDARD PLATE
Calls of active or inactive are those of the source. No rule for the calls is given here.
quantity measured: mutagenic call

Known mutagenic call results, listed for orientation:
COc1cc(C[C@@H]2NCCc3cc(O)c(O)cc32)cc(OC)c1OC    inactive; negative
O=[N+]([O-])c1ccc2c3ccccc3c3c([N+](=O)[O-])ccc4ccc1c2c43    active; positive
Cc1cc(N=Nc2ccccc2C)ccc1N    active; positive
Nc1cnc2c(c1)nc1ccccn12    active; positive
COc1cc(N)c(C)cc1N    inactive; negative
O=c1[nH]c(=O)[nH]c(=O)[nH]1    inactive; negative

Data request: May I ask what mutagenic call has been recorded for "O=C([O-])c1cc(N=Nc2ccc(-c3ccc(N/N=c4/c(=O)cc/c(=N\Nc5cc(S(=O)(=O)[O-])ccc5[O-])c4=O)cc3)cc2)ccc1[O-].[Cu+2].[Na+].[Na+]" ?
Data returned: inactive; negative

Data request: May I ask what mutagenic call has been recorded for CC1CNc2cc(O)c3ccc4ccccc4c3c21 (centres undefined) ?
Data returned: active; positive

Data request: May I ask what mutagenic call has been recorded for "O=C1CCC(=O)N1c1ccc(Cl)c(Cl)c1Cl" ?
Data returned: inactive; negative
